From: ChEMBL document CHEMBL3414502

# targetOrTestSystem: Casein kinase II (Homo sapiens, UniProt P19784+P67870+P68400)
# Sequence (P67870 whole entry): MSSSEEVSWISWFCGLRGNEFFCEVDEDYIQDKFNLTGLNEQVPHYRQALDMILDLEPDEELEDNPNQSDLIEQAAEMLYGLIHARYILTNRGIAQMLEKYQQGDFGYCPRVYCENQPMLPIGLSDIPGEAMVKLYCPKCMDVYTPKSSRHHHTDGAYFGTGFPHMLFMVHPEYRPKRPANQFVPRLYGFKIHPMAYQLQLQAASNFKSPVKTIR
# Sequence (P68400 whole entry): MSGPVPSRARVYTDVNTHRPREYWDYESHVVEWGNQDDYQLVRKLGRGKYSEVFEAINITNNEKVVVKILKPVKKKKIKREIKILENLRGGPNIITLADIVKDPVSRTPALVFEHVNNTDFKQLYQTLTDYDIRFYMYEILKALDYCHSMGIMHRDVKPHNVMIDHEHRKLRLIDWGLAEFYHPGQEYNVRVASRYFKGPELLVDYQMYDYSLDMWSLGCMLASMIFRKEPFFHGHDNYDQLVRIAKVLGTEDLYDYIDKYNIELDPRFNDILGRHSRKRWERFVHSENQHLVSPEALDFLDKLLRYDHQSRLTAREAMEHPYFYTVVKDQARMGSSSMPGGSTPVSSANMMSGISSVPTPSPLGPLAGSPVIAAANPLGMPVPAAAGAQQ
# Sequence (P19784 whole entry): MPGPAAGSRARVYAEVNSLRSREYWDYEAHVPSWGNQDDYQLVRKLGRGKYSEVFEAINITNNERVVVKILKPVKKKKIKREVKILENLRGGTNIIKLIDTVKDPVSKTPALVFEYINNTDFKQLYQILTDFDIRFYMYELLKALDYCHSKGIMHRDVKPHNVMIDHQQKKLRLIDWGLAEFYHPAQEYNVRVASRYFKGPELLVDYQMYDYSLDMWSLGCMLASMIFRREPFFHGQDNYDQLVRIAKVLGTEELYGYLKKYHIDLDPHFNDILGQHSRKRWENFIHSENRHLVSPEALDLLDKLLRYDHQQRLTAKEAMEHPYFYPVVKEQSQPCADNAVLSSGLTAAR
# assayNotes: Inhibition of CK2 kinase (unknown origin) using RRRDDDSDDD as substrate after 10 mins by topcount analysis in presence of [gamma-32P]ATP and 90 uM ATP
So basically, if IC50 comes in under 20 µM it's 1, and if it's 20 µM or more it's -1.

Worked examples, 2 compounds total:
| compound | assignedCategory |
| --- | --- |
| CCOc1ccc(C2=N/C(=C/c3ccc(C(=O)O)cc3)C(=O)O2)cc1 | -1 |
| COc1ccc(/C=C2\Oc3cc(OCC(=O)O)ccc3C2=O)cc1OC | 1 |

QUERY: Is 20 µM strictly greater than the compound's reported IC50? compound: `O=c1[nH]c(-c2ccc(OCc3ccccc3)cc2)nc2c1cnn2-c1ccccc1`
RESULT: 1

QUERY: Is 20 µM strictly greater than the compound's reported IC50? compound: `O=C(COC(=O)c1c[nH]c2ccccc12)Nc1ccc2[nH]c(=O)[nH]c2c1`
RESULT: -1

QUERY: Is 20 µM strictly greater than the compound's reported IC50? compound: Cc1cc(Br)c(N2C(=O)NC(=O)C(/C=N/c3ccc(C(=O)O)c(O)c3)C2=O)cc1C (stereo not drawn)
RESULT: -1

QUERY: Is 20 µM strictly greater than the compound's reported IC50? compound: `Cc1nn(C)cc1-c1cc(-c2nnc(Nc3ccn(Cc4ccccc4Cl)n3)s2)no1`
RESULT: 1

QUERY: Is 20 µM strictly greater than the compound's reported IC50? compound: `COc1ccc(-c2nc(C(N)=O)c3[nH]c(=O)n(-c4ccc(OC)c(OC)c4)c3n2)cc1`
RESULT: -1

QUERY: Is 20 µM strictly greater than the compound's reported IC50? compound: `COc1cccc(NC(=O)Nc2nnc(-c3ccc([N+](=O)[O-])cc3)s2)c1`
RESULT: 1

QUERY: Is 20 µM strictly greater than the compound's reported IC50? compound: `COc1ccc(-c2nc3c(sc4nc(C(F)F)cc(C)c43)c(=O)[nH]2)cc1Cn1cc([N+](=O)[O-])cn1`
RESULT: 1

QUERY: Is 20 µM strictly greater than the compound's reported IC50? compound: `CC(C)(C)c1ccc(C2=N/C(=C/c3ccc(C(=O)O)cc3)C(=O)O2)cc1`
RESULT: 1

QUERY: Is 20 µM strictly greater than the compound's reported IC50? compound: `Nc1nc2ccc(NC(=S)NC(=O)c3cccs3)cc2s1`
RESULT: -1

QUERY: Is 20 µM strictly greater than the compound's reported IC50? compound: `O=C(O)COc1ccc2c(c1)O/C(=C\c1ccco1)C2=O`
RESULT: 1

---

# targetOrTestSystem: Casein kinase II (Homo sapiens, UniProt P19784+P67870+P68400)
# assayNotes: Inhibition of CK2 kinase (unknown origin) using RRRDDDSDDD as substrate after 10 mins by topcount analysis in presence of [gamma-32P]ATP and 90 uM ATP
pIC50: −log10 of the molar value.
Output satisfied for pIC50 not less than 5; output not satisfied otherwise.

Worked examples, 3 compounds total:
| smilesStr | assignedCategory |
| --- | --- |
| COc1cc(/C=C2/C(=O)NN(c3ccc(C)c(Cl)c3)C2=O)ccc1OCC(=O)O | not satisfied |
| Nc1nnc(-c2ccc(C(=O)O)cc2)s1 | not satisfied |
| O=c1[nH]n2c(=O)c3c([nH]c2c1/N=N/c1ccccc1Cl)CCC3 | satisfied |

Please turn your attention to the following entry.
QUERY: Is reported pIC50 greater than or equal to 5 here: `CCOc1cc(-c2nc3c(cnn3-c3ccccc3)c(=O)[nH]2)ccc1O`
RESULT: not satisfied

---

# targetOrTestSystem: Casein kinase II (Homo sapiens, UniProt P19784+P67870+P68400)
# assayNotes: Inhibition of CK2 kinase (unknown origin) using RRRDDDSDDD as substrate after 10 mins by topcount analysis in presence of [gamma-32P]ATP and 90 uM ATP
So basically, if IC50 comes in under 20 µM it's Satisfied, and if it's 20 µM or more it's Not satisfied.

| smilesStr | targetOrTestSystem | assignedCategory |
| --- | --- | --- |
| CCC(=O)Nc1nnc(-c2ccc([N+](=O)[O-])cc2)s1 | Casein kinase II (Homo sapiens, UniProt P19784+P67870+P68400) | Not satisfied |
| O=C1OC(c2ccc(-c3ccccc3)cc2)=N/C1=C/c1ccc(C(=O)O)cc1 | Casein kinase II (Homo sapiens, UniProt P19784+P67870+P68400) | Satisfied |
| O=C(COC(=O)c1cc(Br)c(Br)s1)Nc1ccc2[nH]c(=O)[nH]c2c1 | Casein kinase II (Homo sapiens, UniProt P19784+P67870+P68400) | Satisfied |

QUERY: Is 20 µM strictly greater than the compound's reported IC50? compound: `O=c1[nH]nc(-c2ccco2)c2cn(-c3cccc([N+](=O)[O-])c3)nc12`
RESULT: Not satisfied

QUERY: Is 20 µM strictly greater than the compound's reported IC50? compound: `O=C1OC(c2sc3ccccc3c2Cl)=N/C1=C/c1ccc(C(=O)O)cc1`
RESULT: Satisfied
